# Lookup of reported growth inhibition keyed by entry
- PROCEDURE DETAILS: NCI Yeast Anticancer Drug Screen. Data for the mec2-1 strain (AID 157)
- CONDITION PARAMETERS: S. cerevisiae mec2-1 strain, at 50.0 µM, active compounds read high
Compounds without any hit were thinned out: in the full panel of roughly 79,000, 15% have a hit. Calls of active or inactive are those of the source. No stated cut-off is given here; in the data, active means growth inhibition above about 70%; inactive means the rest.
REPORTED METRIC: growth inhibition

1) COc1ccc(NC(=O)Oc2ccc3c(C)cc(=O)oc3c2)c(OC)c1 (tested in a mixture with another compound): -6.2% (inactive)
2) Cc1cc(C)c(C2CNCc3cc4c(cc32)CNCC4c2c(C)cc(C)cc2C)c(C)c1 (centres undefined): -32.8% (inactive)
3) CC(C)Sc1nc(NC(=O)N(C)N=O)cc(=O)[nH]1: -3.45% (inactive)
4) CC(C)CCOC(=O)c1ccccc1Cl: 18.5% (inactive)
5) CCCc1oc(C)cc1CC: -22.4% (inactive)
6) CN1CNC(=S)NC1: -7.85% (inactive)
7) O=c1oc2c3ccc4ccccc4c3n(CCN3CCCCC3)c2c2ccccc12: 53.6% (inactive)
8) Cn1nc(-c2cccc(N)c2)cc1Cl: -10.4% (inactive)
9) CCCCc1nc2c([nH]1)c(=O)n(C)c(=O)n2C: -10.9% (inactive)
10) CCOC(=O)/C=C/SCCCC(=O)O: -1.5% (inactive)
11) Cc1ccc(-n2ncc3c(N)ncnc32)cc1: 12.4% (inactive)
12) COc1ccc2nccc(SCC(=O)O)c2c1: 8.25% (inactive)
13) N#CCCOCC(COCCC#N)(COCCC#N)COCCC#N: -24.4% (inactive)
14) O=C(CCCC(=O)N/N=C/c1cccc([N+](=O)[O-])c1)N/N=C\c1cccc([N+](=O)[O-])c1: 21.9% (inactive)
15) CN(C)CCCn1c(=O)nc2n(-c3ccccc3)c3ccccc3nc-2c1=O: 4.5% (inactive)
16) O=C(c1cccc(C(=O)N(c2ccccc2)C2CCCCC2)c1)N(c1ccccc1)C1CCCCC1: -6.35% (inactive)
17) CC(O[Si](C)(C)C(C)(C)C)[C@H](NC(=O)OCC(Cl)(Cl)Cl)C(=O)O (some centres undefined): -27.8% (inactive)
18) N#CCCNC1CCCCC1: 4% (inactive)
19) Clc1nnc(Cl)c2ncccc12: 8.3% (inactive)
20) CC(C)(C)CC(C)(C)c1ccc(OCCOc2ccc([N+](=O)[O-])cc2N)cc1: 11.1% (inactive)
21) CC(=O)/C(C=Nc1c(C)n(C)n(-c2ccccc2)c1=O)=C(/C)O: 29% (inactive)
22) Cc1cccc(NC(=O)c2c(Br)c(Br)c(Br)c(Br)c2C(=O)O)c1C: -18% (inactive)
23) C=C(C)CN(CC(=C)C)c1nc(N)nc(N)n1: -2.95% (inactive)
24) CCCCCCc1cc(-c2cc(CCCCCC)nc(N)n2)nc(N)n1: 7.05% (inactive)
